Property: pIC50; scope: individual compounds
# TESTED_SYSTEM: Cannabinoid-1 receptor (CB1R) (Rattus norvegicus, UniProt P20272)
# Construct: The tissue obtained from the brain of SD rats was homogenized; from tissue; host or cells: brain of SD rats (membrane pellet of the homogenate)
# Sequence (P20272 whole entry): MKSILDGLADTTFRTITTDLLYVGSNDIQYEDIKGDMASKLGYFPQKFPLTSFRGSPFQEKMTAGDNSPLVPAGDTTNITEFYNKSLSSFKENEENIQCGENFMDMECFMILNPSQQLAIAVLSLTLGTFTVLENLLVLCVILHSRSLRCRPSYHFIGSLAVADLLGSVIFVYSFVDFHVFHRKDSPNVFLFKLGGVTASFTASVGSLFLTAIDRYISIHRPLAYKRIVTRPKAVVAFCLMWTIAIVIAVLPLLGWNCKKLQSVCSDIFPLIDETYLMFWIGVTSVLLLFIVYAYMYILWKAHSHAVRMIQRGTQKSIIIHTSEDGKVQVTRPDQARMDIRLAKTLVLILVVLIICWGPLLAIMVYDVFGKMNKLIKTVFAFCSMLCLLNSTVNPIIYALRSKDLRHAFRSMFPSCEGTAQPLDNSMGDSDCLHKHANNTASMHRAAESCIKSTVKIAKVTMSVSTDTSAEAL
# EXPERIMENTAL_DETAILS: Cannabinoid-1 receptor (CB1R) binding affinity assay ([3H]CP-55940, rat CB-1 receptor binding protocol)
# CONDITION_LABEL: brain tissue of SD rats, [3H]CP-55940, 30° C. 60 min; read-out: IC50
pIC50: −log10 of the molar value.
EXPERIMENTAL_READOUT: pIC50

{"columns": ["STRUCTURE_SMILES", "EXPERIMENTAL_READOUT", "RECORDED_MEASUREMENT"],
 "data": [
  ["Clc1ccc(-c2c(Br)c(-c3nnc(C4CCC4)s3)nn2-c2ccc(Cl)cc2Cl)cc1", "pIC50", 7.15],
  ["CC(C)(C)c1nnc(-c2nn(-c3ccc(Cl)cc3Cl)c(-c3ccc(Cl)cc3)c2Cc2nnn[nH]2)o1", "pIC50", 6.05],
  ["Cc1c(-c2nnnn2CCc2ccccc2)nn(-c2ccc(Cl)cc2Cl)c1-c1ccc(Cl)cc1", "pIC50", 6.87],
  ["Cc1c(-c2nnc(C3(C(F)(F)F)CCC3)s2)nn(-c2ccc(Cl)cc2Cl)c1-c1ccc(Cl)cc1", "pIC50", 7.47],
  ["CCc1c(-c2nnc(C3CCCC3)s2)nn(-c2ccc(Cl)cc2Cl)c1-c1ccc(Cl)cc1", "pIC50", 8.00],
  ["CC(C)(C)c1nnc(-c2nn(-c3ccc(Cl)cc3Cl)c(-c3ccc(Cl)cc3)c2COC(=O)c2ccccc2)o1", "pIC50", 7.16],
  ["Clc1ccc(-c2c(Cl)c(-c3nnc(C4CCCCC4)s3)nn2-c2ccc(Cl)cc2Cl)cc1", "pIC50", 6.19]
]}

* * *

# TESTED_SYSTEM: Cannabinoid-1 receptor (CB1R) (Rattus norvegicus)
# Construct: The tissue obtained from the brain of SD rats was homogenized; from tissue; host or cells: brain of SD rats (membrane pellet of the homogenate)
# EXPERIMENTAL_DETAILS: Cannabinoid-1 receptor (CB1R) binding affinity assay ([3H]CP-55940, rat CB-1 receptor binding protocol)
# CONDITION_LABEL: brain tissue of SD rats, [3H]CP-55940, 30° C. 60 min; read-out: IC50
For each record, check the reported IC50: if it is below 9 nM write 1, else write -1.

{"columns": ["MOLECULE", "TESTED_SYSTEM", "CATEGORY_LABEL"],
 "data": [
  ["Cc1c(-c2nnc(-c3ccco3)o2)nn(-c2ccc(Cl)cc2Cl)c1-c1ccc(Cl)cc1", "Cannabinoid-1 receptor (CB1R) (Rattus norvegicus)", -1],
  ["Cc1c(-c2nnc(C3(C)CC3)s2)nn(-c2ccc(Cl)cc2Cl)c1-c1ccc(Cl)cc1", "Cannabinoid-1 receptor (CB1R) (Rattus norvegicus)", -1],
  ["CC(O)c1c(-c2nnc(C(C)(C)C)o2)nn(-c2ccc(Cl)cc2Cl)c1-c1ccc(Br)cc1 (stereo not drawn)", "Cannabinoid-1 receptor (CB1R) (Rattus norvegicus)", 1],
  ["CCc1c(-c2nnc(C3(c4ccc(OC)cc4)CC3)o2)nn(-c2ccc(Cl)cc2Cl)c1-c1ccc(Cl)cc1", "Cannabinoid-1 receptor (CB1R) (Rattus norvegicus)", 1],
  ["Cc1c(-c2nnc(C3(c4ccc(Cl)cc4)CCC3)o2)nn(-c2ccc(Cl)cc2Cl)c1-c1ccc(Cl)cc1", "Cannabinoid-1 receptor (CB1R) (Rattus norvegicus)", -1],
  ["CCc1c(-c2nnc(C3(c4cccc(Cl)c4)CC3)o2)nn(-c2ccc(Cl)cc2Cl)c1-c1ccc(Cl)cc1", "Cannabinoid-1 receptor (CB1R) (Rattus norvegicus)", 1],
  ["COC(C)(C)c1nnc(-c2nn(-c3ccc(Cl)cc3Cl)c(-c3ccc(Cl)cc3)c2C)s1", "Cannabinoid-1 receptor (CB1R) (Rattus norvegicus)", -1],
  ["CCCCc1nnc(-c2nn(-c3ccc(Cl)cc3Cl)c(-c3ccc(Cl)cc3)c2C)s1", "Cannabinoid-1 receptor (CB1R) (Rattus norvegicus)", -1],
  ["Cc1c(-c2nnc(CC3CCCCC3)s2)nn(-c2ccc(Cl)cc2Cl)c1-c1ccc(Cl)cc1", "Cannabinoid-1 receptor (CB1R) (Rattus norvegicus)", -1],
  ["CCC(C)c1nnc(-c2nn(-c3ccc(Cl)cc3)c(-c3ccc(Cl)cc3)c2C)s1 (stereo not drawn)", "Cannabinoid-1 receptor (CB1R) (Rattus norvegicus)", -1],
  ["Cc1c(-c2nnc(C3(c4ccc(Cl)cc4)CC3)o2)nn(-c2cc(Cl)ccc2Cl)c1-c1ccc(Cl)cc1", "Cannabinoid-1 receptor (CB1R) (Rattus norvegicus)", -1],
  ["Cc1c(-c2nnn(Cc3ccccn3)n2)nn(-c2ccc(Cl)cc2Cl)c1-c1ccc(Cl)cc1", "Cannabinoid-1 receptor (CB1R) (Rattus norvegicus)", -1],
  ["CCc1c(-c2nnc(C(C)(C)OCCCO)o2)nn(-c2ccc(Cl)cc2Cl)c1-c1ccc(Br)cc1", "Cannabinoid-1 receptor (CB1R) (Rattus norvegicus)", -1],
  ["CC(C)(C)c1nnc(-c2nn(-c3ccc(Cl)cc3Cl)c(-c3ccc(Br)cc3)c2Cn2cncn2)o1", "Cannabinoid-1 receptor (CB1R) (Rattus norvegicus)", 1],
  ["Cc1c(-c2nnc(C(C)(C)OCc3ccccc3)o2)nn(-c2ccc(Cl)cc2Cl)c1-c1ccc(Cl)cc1", "Cannabinoid-1 receptor (CB1R) (Rattus norvegicus)", -1]
]}

* * *

# TESTED_SYSTEM: Cannabinoid-1 receptor (CB1R) (Rattus norvegicus, UniProt P20272)
# Construct: The tissue obtained from the brain of SD rats was homogenized; from tissue; host or cells: brain of SD rats (membrane pellet of the homogenate)
# EXPERIMENTAL_DETAILS: Cannabinoid-1 receptor (CB1R) binding affinity assay ([3H]CP-55940, rat CB-1 receptor binding protocol)
# CONDITION_LABEL: brain tissue of SD rats, [3H]CP-55940, 30° C. 60 min; read-out: IC50

{"columns": ["STRUCTURE_SMILES", "IC50 [nM]"],
 "data": [
  ["CC(=O)SCc1c(-c2nnc(C(C)(C)C)o2)nn(-c2ccc(Cl)cc2Cl)c1-c1ccc(Cl)cc1", 20.7],
  ["C=CCOC(C)(C)c1nnc(-c2nn(-c3ccc(Cl)cc3Cl)c(-c3ccc(Cl)cc3)c2C)o1", 17.3],
  ["Cc1c(-c2nnc(C3(Cc4ccc(Cl)cc4)CC3)o2)nn(-c2ccc(Cl)cc2Cl)c1-c1ccc(Cl)cc1", 11.7],
  ["Cc1c(-c2nnc(C(C)(C)C)s2)nn(-c2ccc(Cl)cc2Cl)c1-c1cccc(Cl)c1", 172]
]}

* * *

# TESTED_SYSTEM: Cannabinoid-1 receptor (CB1R) (Rattus norvegicus)
# Construct: The tissue obtained from the brain of SD rats was homogenized; from tissue; host or cells: brain of SD rats (membrane pellet of the homogenate)
# EXPERIMENTAL_DETAILS: Cannabinoid-1 receptor (CB1R) binding affinity assay ([3H]CP-55940, rat CB-1 receptor binding protocol)
# CONDITION_LABEL: brain tissue of SD rats, [3H]CP-55940, 30° C. 60 min; read-out: IC50
pIC50: −log10 of the molar value.
Decision: pIC50 >= 8 yields y, all other cases yield n.

{"columns": ["STRUCTURE_SMILES", "CATEGORY_LABEL"],
 "data": [
  ["Cc1c(-c2nnn(C3CCCCC3)n2)nn(-c2ccc(Cl)cc2Cl)c1-c1ccc(Cl)cc1", "n"],
  ["Cc1c(-c2nnc(CC3CCCC3)s2)nn(-c2ccc(Cl)cc2Cl)c1-c1ccc(Cl)cc1", "n"],
  ["Cc1c(-c2nnnn2C(C)C)nn(-c2ccc(Cl)cc2Cl)c1-c1ccc(Cl)cc1", "n"],
  ["C=CCOC(C)(C)c1nnc(-c2nn(-c3ccc(Cl)cc3Cl)c(-c3ccc(Cl)cc3)c2CC)o1", "y"]
]}

* * *

# TESTED_SYSTEM: Cannabinoid-1 receptor (CB1R) (Rattus norvegicus, UniProt P20272)
# Construct: The tissue obtained from the brain of SD rats was homogenized; from tissue; host or cells: brain of SD rats (membrane pellet of the homogenate)
# EXPERIMENTAL_DETAILS: Cannabinoid-1 receptor (CB1R) binding affinity assay ([3H]CP-55940, rat CB-1 receptor binding protocol)
# CONDITION_LABEL: brain tissue of SD rats, [3H]CP-55940, 30° C. 60 min; read-out: IC50
pIC50: −log10 of the molar value.
Property: pIC50; scope: individual compounds

{"columns": ["COMPOUND", "pIC50"],
 "data": [
  ["Cc1c(-c2nnn(C3CCCC3)n2)nn(-c2ccc(Cl)cc2Cl)c1-c1ccc(Cl)cc1", 7.17],
  ["CCCCOCc1c(-c2nnc(C(C)(C)C)o2)nn(-c2ccc(Cl)cc2Cl)c1-c1ccc(Cl)cc1", 6.95],
  ["CCC(C)c1nnc(-c2nn(-c3ccc(Cl)cc3)c(-c3ccc(Br)cc3)c2C)s1 (stereo not shown)", 6.33],
  ["CCc1c(-c2nnc(C3(CC)CC3)o2)nn(-c2ccc(Cl)cc2Cl)c1-c1ccc(Cl)cc1", 7.77]
]}

// data source = patent US7875647B2
